Value source: patent US8969386B2

Target: ΔF508-CFTR (Homo sapiens, UniProt P13569, DEL508-508)
Construct: expressed in transfected cells
Sequence (P13569 with tags, fused parts or gaps DEL508-508): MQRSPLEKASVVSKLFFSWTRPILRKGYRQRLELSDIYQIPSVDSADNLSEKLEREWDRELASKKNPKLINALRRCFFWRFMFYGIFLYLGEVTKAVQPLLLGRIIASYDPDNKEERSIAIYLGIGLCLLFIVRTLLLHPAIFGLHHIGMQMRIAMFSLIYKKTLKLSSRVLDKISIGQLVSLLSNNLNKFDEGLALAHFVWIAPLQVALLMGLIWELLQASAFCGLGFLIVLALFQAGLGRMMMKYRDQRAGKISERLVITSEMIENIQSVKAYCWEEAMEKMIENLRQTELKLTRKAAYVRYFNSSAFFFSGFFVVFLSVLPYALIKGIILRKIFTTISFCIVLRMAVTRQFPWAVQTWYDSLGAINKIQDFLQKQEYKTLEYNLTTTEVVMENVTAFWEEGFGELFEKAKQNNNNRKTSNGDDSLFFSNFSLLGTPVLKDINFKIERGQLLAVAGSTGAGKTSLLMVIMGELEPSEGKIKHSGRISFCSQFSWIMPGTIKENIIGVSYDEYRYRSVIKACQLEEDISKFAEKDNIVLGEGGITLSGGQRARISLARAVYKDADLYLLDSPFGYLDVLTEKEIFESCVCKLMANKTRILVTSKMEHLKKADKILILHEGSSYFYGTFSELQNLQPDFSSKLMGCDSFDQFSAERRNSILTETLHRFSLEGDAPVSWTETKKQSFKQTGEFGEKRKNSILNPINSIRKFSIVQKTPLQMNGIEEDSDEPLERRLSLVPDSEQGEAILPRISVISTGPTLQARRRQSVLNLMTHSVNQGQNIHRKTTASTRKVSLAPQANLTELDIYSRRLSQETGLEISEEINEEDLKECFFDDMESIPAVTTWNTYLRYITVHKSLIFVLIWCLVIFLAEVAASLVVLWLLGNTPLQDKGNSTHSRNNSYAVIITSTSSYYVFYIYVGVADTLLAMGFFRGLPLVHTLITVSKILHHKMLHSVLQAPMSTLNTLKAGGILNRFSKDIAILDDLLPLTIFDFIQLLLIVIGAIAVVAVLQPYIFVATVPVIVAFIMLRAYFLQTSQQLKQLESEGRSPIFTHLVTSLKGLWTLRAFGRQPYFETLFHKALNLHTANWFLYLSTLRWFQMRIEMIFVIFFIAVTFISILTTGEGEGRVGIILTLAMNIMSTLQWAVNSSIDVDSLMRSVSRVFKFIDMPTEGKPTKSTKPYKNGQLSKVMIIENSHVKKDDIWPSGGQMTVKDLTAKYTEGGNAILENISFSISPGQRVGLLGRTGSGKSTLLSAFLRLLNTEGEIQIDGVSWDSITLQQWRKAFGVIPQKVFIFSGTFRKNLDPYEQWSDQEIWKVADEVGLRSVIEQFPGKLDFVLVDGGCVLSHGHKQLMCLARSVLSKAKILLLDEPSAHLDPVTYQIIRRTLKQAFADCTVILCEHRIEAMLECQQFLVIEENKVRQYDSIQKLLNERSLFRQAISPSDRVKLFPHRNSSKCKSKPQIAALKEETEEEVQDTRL
Experiment: ΔF508-CFTR correction, membrane potential optical (FRET/VIPR) assay
Assay type: cell-based
Conditions: NIH3T3 mouse fibroblasts stably expressing ΔF508-CFTR; read-out: % Efficacy
So I've got a bunch of compounds here, and I need their Emax values.

Cc1cc(NC(=O)C2(c3ccc4c(c3)OC(F)(F)O4)CC2)nc(-c2c[nH]c(=O)cc2C)c1 > 100%
COc1cc(-c2nc(NC(=O)C3(c4ccc5c(c4)OC(F)(F)O5)CC3)ccc2C)cc(C)n1 50 to 100%
COc1ccc(C2(C(=O)Nc3ccc(C)c(-c4c[nH]c(=O)c(C)c4)n3)CC2)cc1Cl 50 to 100%
Cc1cc(NC(=O)C2(c3ccc4c(c3)OC(F)(F)O4)CC2)nc(-c2ccn(CCO)c(=O)c2)c1 > 100%
Cc1cc(-c2nc(NC(=O)C3(c4ccc5c(c4)OC(F)(F)O5)CC3)ccc2C)c(=O)n(CCO)c1 > 100%
Cc1cc(NC(=O)C2(c3ccc4c(c3)OC(F)(F)O4)CC2)nc(-c2ccc(=O)[nH]c2)c1C 50 to 100%
Cc1ccc(NC(=O)C2(c3ccc4c(c3)OCO4)CC2)nc1-c1ccc(=O)[nH]c1 50 to 100%
COc1ncc(-c2nc(NC(=O)C3(c4ccc5c(c4)OC(F)(F)O5)CC3)ccc2C)cc1NC(C)=O > 100%
COc1ccc(C2(C(=O)Nc3ccc(C)c(-c4ccc(OC)nc4)n3)CC2)cc1 50 to 100%
COc1ccc(C2(C(=O)Nc3ccc(C)c(-c4ccc[nH]c4=O)n3)CC2)cc1 50 to 100%

Give Emax for each listed item.
1. Cc1ccc(NC(=O)C2(c3ccc4c(c3)OC(F)(F)O4)CC2)nc1-c1c[nH]c(=O)c(C#N)c1
2. COc1ncc(C)cc1-c1nc(NC(=O)C2(c3ccc4c(c3)OC(F)(F)O4)CC2)ccc1C
3. COc1cc(-c2nc(NC(=O)C3(c4ccc5c(c4)OC(F)(F)O5)CC3)ccc2C)ccn1

Reply text:
1. 50 to 100%
2. 50 to 100%
3. > 100%

Give Emax for each listed item.
1. Cc1ccc(NC(=O)C2(c3ccc4c(c3)OC(F)(F)O4)CC2)nc1-c1c[nH]c(=O)c(Cl)c1
2. Cc1ccc(NC(=O)C2(c3ccc4c(c3)OC(F)(F)O4)CC2)nc1-c1c[nH]c(=O)c(C(N)=O)c1
3. Cc1cc(NC(=O)C2(c3ccc4c(c3)CCO4)CC2)nc(-c2ccc(=O)[nH]c2)c1C

Reply text:
> 100%
50 to 100%
50 to 100%

---

Molecular target: ΔF508-CFTR (Homo sapiens, UniProt P13569, DEL508-508)
Construct: expressed in transfected cells
Assay: ΔF508-CFTR correction, membrane potential optical (FRET/VIPR) assay
Format: cell-based
Settings: NIH3T3 mouse fibroblasts stably expressing ΔF508-CFTR; read-out: % Efficacy
So I've got a bunch of compounds here, and I need their Emax values.

Use these answered entries as a reference point.
Cc1ccc(NC(=O)C2(c3ccc4c(c3)OC(F)(F)O4)CC2)nc1-c1ccc(=O)n(CC#N)c1 50 to 100%
Cc1ccc(NC(=O)C2(c3ccc4c(c3)OC(F)(F)O4)CC2)nc1-c1ccc(=O)n(CC(=O)NC#N)c1 < 50%
Cc1ccc(NC(=O)C2(c3ccc4c(c3)OC(F)(F)O4)CC2)nc1-c1cccc(=O)[nH]1 50 to 100%

Give Emax for each listed item.
1. Cc1ccc(NC(=O)C2(c3ccc4c(c3)OC(F)(F)O4)CC2)nc1-c1ccc(=O)n(C)c1
2. COc1ccc(C2(C(=O)Nc3ccc(C)c(-c4ccnc(OC)c4)n3)CC2)cc1
3. COc1ncc(C)cc1-c1cc(C)cc(NC(=O)C2(c3ccc4c(c3)OC(F)(F)O4)CC2)n1
4. COc1ccc(-c2nc(NC(=O)C3(c4ccc5c(c4)OC(F)(F)O5)CC3)ccc2C)c(C)n1
5. COc1ncc(-c2nc(NC(=O)C3(c4ccc5c(c4)OC(F)(F)O5)CC3)cc(C)c2C)cc1C

Reply text:
["50 to 100%", "> 100%", "> 100%", "> 100%", "50 to 100%"]

Give Emax for each listed item.
1. COc1ncccc1-c1nc(NC(=O)C2(c3ccc4c(c3)OC(F)(F)O4)CC2)cc(C)c1C
2. Cc1ccc(NC(=O)C2(c3ccc4c(c3)OC(F)(F)O4)CC2)nc1-c1ccn(C)c(=O)c1

Reply text:
["> 100%", "> 100%"]

Give Emax for each listed item.
1. COc1ccc(-c2nc(NC(=O)C3(c4ccc5c(c4)OC(F)(F)O5)CC3)cc(C)c2C)c(C)n1
2. Cc1ccc(NC(=O)C2(c3ccc4c(c3)OC(F)(F)O4)CC2)nc1-c1ccc(=O)n(CCS(C)(=O)=O)c1
3. CCOC(=O)NCCn1cc(-c2nc(NC(=O)C3(c4ccc5c(c4)OC(F)(F)O5)CC3)ccc2C)ccc1=O
4. Cc1cc(NC(=O)C2(c3ccc4c(c3)OC(F)(F)O4)CC2)nc(-c2ccc(=O)[nH]c2)c1
5. Cc1cc(NC(=O)C2(c3ccc4c(c3)CCO4)CC2)nc(-c2cc[nH]c(=O)c2)c1

Reply text:
1. > 100%
2. > 100%
3. > 100%
4. > 100%
5. 50 to 100%
